# MEASUREMENT TARGET: DLG4_1, P78352
# Sequence (P78352 62-152): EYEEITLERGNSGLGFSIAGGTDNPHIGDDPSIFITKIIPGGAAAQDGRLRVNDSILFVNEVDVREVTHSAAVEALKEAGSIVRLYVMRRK
# ASSAY NOTES: holdup assay
# Set-up: key: below the threshold = too weak to quantify, mostly under pKd 3.1 to 4
# SETTINGS: plain residues with an end cap or a label only (N-terminal biotin on a linker: ttds)
ASSAY ENDPOINT: pKd
Respond numerically, and do not add a unit to the figure.

Worked cases, answers included:
>>> readout_number("SKPTRRETEV [HPV35-E6, P27228]")
5.09
>>> readout_number("FHPLGADSQV [SLC2A1, P11166]")
3.51

Task item: What value of pKd has been reported for the following binder? QRQARSETLV [HPV59-E6, Q81964]
Reply: 5.11

Task item: Query: pKd; subject: PRVKPQRSKV [PPP1R13L, Q8WUF5]
Reply: 3.54

Task item: Would you kindly share the measured pKd for SSLQSLETSV [ATP2B4, P23634] ?
Reply: 4.78

Task item: Please give the measured pKd for this binder: EMDRRPATVV [PLCB4, Q15147]
Reply: 4.13

Task item: What does the record list as pKd for RLQRRRETQV [HPV18-E6, P06463] ?
Reply: 5.11

Task item: Look up pKd for this binder: SGSRPSATVV [HPV73-E6, Q82005]
Reply: 3.97

Task item: What does the record list as pKd for PVRVCEETSL [OTULIN, Q96BN8] ?
Reply: 4.11

Task item: Entry under review: RLPKIKETTV [FRMPD4, Q14CM0] . Reported pKd?
Reply: 5.05

Task item: pKd for RHTTSTETAV [HPV30-E6, P36809] ?
Reply: 4.92

Task item: Recorded pKd for EVVHTPETSV [SLC16A3, O15427] , please?
Reply: 3.9

Task item: # input binder: KKYVDAETSL [SLC4A7, Q9Y6M7] ; wanted: its pKd
Reply: 3.73
